Assay: in vitro
Conditions: human, hela cells, % viability
Assay Readout: viability at 28.5 h, 10 µM (%)
Kindly provide the numeric value in % only, without the unit symbol.

These recorded examples may help you get a feel for the data.
COc1ccc(Br)cc1CN(CCc1ccc2c(c1)OCO2)Cc1cccnc1 [CBK263327G] | 96.8
Cc1nc2c(c(=O)[nH]1)CN(Cc1ccc(-c3ccccc3)cc1)CC2 | 99
Cc1cc(C)c(C)c(S(=O)(=O)N(CCO)CCO)c1C | 90.5

input: Return reported viability at 28.5 h, 10 µM; argument: Cc1ccc2c(c1)c(C)c(C(=O)NCCn1ccc(C)n1)n2C
output: 106

input: Which viability at 28.5 h, 10 µM reading was recorded for the molecule FC(F)(F)c1cccc(CSc2nccnc2N2CCCC2)c1 ?
output: 94.7

input: Need viability at 28.5 h, 10 µM of Cc1ccn(CCNC(=O)c2cccc(N3CCCC3=O)c2)n1 , thanks.
output: 105

input: Suppose we examine the molecule CC(=O)c1c(C)[nH]c(C(=O)N2CCN(C3CCN(C)CC3)CC2)c1C ; what viability at 28.5 h, 10 µM value has been reported?
output: 104

input: Would you mind telling me what viability at 28.5 h, 10 µM value was observed for CC1CC(=O)C2C=C(c3ccc(Br)cc3)NN=C2C1 (stereo not drawn) ?
output: 91.8

input: Record request: viability at 28.5 h, 10 µM value, item Cc1ccc(S(=O)(=O)N2CCN(C(=O)C3C4C=CC(C4)C3C(=O)O)CC2)cc1 (stereo not drawn)
output: 106

###

Assay: in vitro
Settings: human, hela cells, % viability
Attribute: viability at 28.5 h, 10 µM
Write the number in % without appending the unit.

For orientation, consider the following solved cases.
C[C@H](NC1=NC(=O)[C@@](C)(C(C)(C)O)S1)c1ccc(F)cc1 | 98.1
O=C(NCCN1CCOCC1)c1cc(-c2ccc(Cl)cc2Cl)nc2ccccc12 | 113
CC(C)(C)C(=O)/N=c1/[nH]nc(-c2cccnc2)s1 | 98.3
c1coc(-c2nc3n(n2)CCS3)c1 | 84.7

input: Name the recorded viability at 28.5 h, 10 µM for Cc1nn(C)c(C)c1CN(C)C(=O)C(C)Cn1cc(Cl)cn1 (centres unmarked) .
output: 92.8

###

Test: in vitro
Conditions: human, hela cells, % viability
Assay Readout: viability at 28.5 h, 10 µM (%)
# value in %; strip the unit string

Sample records with viability at 28.5 h, 10 µM:
O=C(C1CCCCC1)N1CC(n2nc(-c3cccs3)ccc2=O)C1 | 99.2
Cc1c(C(=O)Nc2sc3c(c2C(=O)NCc2cccnc2)CCC3)oc2ccccc12 | 87.8
Cc1c(C(=O)C2=C(O)C(=O)N(CCCN(C)C)C2c2ccccn2)cnn1-c1ccccc1 (centres unmarked) | 100
Nc1nc(SCC(=O)NCCCO)nc2sc3c(c12)CCC3 | 88.7
O=C(NC(c1ccc2ccccc2n1)c1cccs1)C1CCNCC1 (centres unmarked) | 98.9
CC(Oc1ccc(Cl)cc1)C(=O)Nc1ncccn1 (centres unmarked) | 96.5
COCc1nnc(Sc2nccnc2NC(C)C)s1 | 99.6
COc1cc(N)c2ncccc2c1 [CBK011972C] | 77.7

Proceeding to the next compound to report its viability at 28.5 h, 10 µM.
input: Need viability at 28.5 h, 10 µM of O=C(O)CSc1nc2ccc(NC(=O)COc3ccc(Cl)cc3)cc2s1 , thanks.
output: 84.6

###

viability at 28.5 h, 10 µM by entry:
Test: in vitro
Details: human, hela cells, % viability
Quick reminder: number only, in %, skip the unit.

CC(=O)Nc1ccc(NC(=O)c2cc(-c3ccc(Cl)cc3Cl)nc3ccccc23)cc1 | 80.8
O=C(CN1CCN(Cc2ccc3c(c2)OCO3)CC1)Nc1ccc(Cl)cc1C(=O)c1ccccc1 | 103
COc1ccc(C2CCCN2S(=O)(=O)c2ccccc2[N+](=O)[O-])cc1OC (stereo not drawn) | 96.1
CCCC/C=C/c1cnc2[nH]c(=O)n(C3CCOCC3)c2n1 | 98.1
Cc1ccc(OC(C)C(=O)N(C)c2ccccc2)cc1 (stereo not drawn) | 111

input: So what's the measured viability at 28.5 h, 10 µM for this one? CN(C)CC(C)(C)CNC1CCN(C)CC1
output: 95.2

input: Report viability at 28.5 h, 10 µM for O=C(NCCCc1nc2ccccc2[nH]1)c1ccccc1 please.
output: 96.9

input: Name the reported viability at 28.5 h, 10 µM value associated with the molecule COc1ccc(-c2ccc(C(=O)NCCN3CCOCC3)c(N(C)C(C)=O)n2)cc1
output: 102

input: Entry COC(=O)CCc1ccc(S(=O)(=O)N2CCN(Cc3ccc(O)c(F)c3)CC2)cc1 : reported viability at 28.5 h, 10 µM = ?
output: 88.9

input: Tell me the measured viability at 28.5 h, 10 µM of Cc1cc(CNC(=O)c2cc3ccccc3oc2=O)c2ccccc2n1 , please.
output: 94.2

input: Could you tell me which viability at 28.5 h, 10 µM is on file for COc1ccc(OC(=O)c2ccc3ncccc3c2)cc1 ?
output: 96.3

###

Listed molecules paired with reported viability at 28.5 h, 10 µM
Experiment: in vitro
Settings: human, hela cells, % viability
Give your result in % as a bare value.

// worked examples, viability at 28.5 h, 10 µM included
CC(C)NS(=O)(=O)c1ccc(NC(=O)COc2ccc3ccccc3c2Br)cc1 | 94.3
COc1ccc(Nc2ncnc3c2oc2ccccc23)cc1 | 86.5
O=C(Nc1ncccc1O)c1cnc2c(cnn2C2CCCC2)c1 | 99.9
Cn1c(Cc2ccccc2)nnc1SCCC(=O)Nc1ccccc1 | 91.3

input: viability at 28.5 h, 10 µM lookup needed for CCNc1cc2ccccc2c(-c2ccc3c(c2)OCCCO3)n1 , thanks.
output: 99.2

input: Which measured viability at 28.5 h, 10 µM value corresponds to O=C(NC1CCCN(c2cc(-c3ccncc3)n[nH]2)C1)c1ccsc1 (centres unmarked) ?
output: 104

input: Request the reported viability at 28.5 h, 10 µM associated with O=C1OCc2ccc(NS(=O)(=O)c3ccc(OC(F)(F)F)cc3)cc21
output: 82.8

###

Assay: in vitro
Conditions: human, hela cells, % viability
Assay Readout: viability at 28.5 h, 10 µM (%)
Give the value in % but do not write % after it.

Some solved entries appear below for comparison.
Cn1nc(C(C)(C)C)c2cc(C(=O)N3CCn4nccc43)cnc21 [CBK305466] | 93.3
O=C(O)CCc1ccc(-c2ccc(Cl)cc2)[nH]1 [CBK264781] | 100
CC1CCCN(C(=O)c2coc(COc3ccc(F)cc3)n2)C1 (stereo not drawn) [CBK306874] | 85.5
Cc1ccc2[nH]c(Cc3ccc(NC(=O)CCc4nc5ccccc5[nH]4)cc3)nc2c1 [CBK285801] | 87
CC(=O)Nc1cc(C(=O)NCCc2ccccc2)ccc1S(=O)(=O)c1ccc(C)cc1 [CBK071771] | 89.3
O=C(Nc1ccccc1C(F)(F)F)NC1CC2CCCC(C1)N2C1CC1 (stereo not drawn) [CBK143578] | 103

input: Fill in: viability at 28.5 h, 10 µM of CC1CC(C)CN(C(=O)Cn2ncc3cccn3c2=O)C1 (stereo not drawn) [CBK283805] is ___
output: 81.2

input: I have this compound here, CC(=O)c1ccc(-c2nccnc2NCc2ccc(C(F)(F)F)cc2)s1 [CBK037983] , and I need its recorded viability at 28.5 h, 10 µM.
output: 99.2

input: Form field: reported viability at 28.5 h, 10 µM of CC1(C)Cc2c(sc(NC(=O)Cc3ccccc3)c2C(=O)O)CO1 [CBK264354]
output: 110

###

Assay: in vitro
Settings: human, hela cells, % viability
Reported viability at 28.5 h, 10 µM values are given for each entry in this list.
Field: numeric (%). Do not append units.

Examples with their reported viability at 28.5 h, 10 µM follow.
COc1ccccc1-c1nccnc1OCc1cccs1 | 88.4
O=C(COc1ccc(Cl)cc1Cl)Nc1cccc(NC(=O)c2ccccc2Cl)c1 | 105
CC(C)C(=O)Nc1nc2c(nc(OCc3ccccc3)n2C2CC(O)C(CO)O2)c(=O)[nH]1 (stereo not drawn) | 91.8
O=C1CN(C(=O)NC(c2ccccc2)c2ccccc2)CCN1 | 93.6
O=S(=O)(Nc1cccc(Br)c1)c1ccc(OC(F)(F)F)cc1 | 114
COc1cc(CNc2nccnc2-c2cccnc2)cc(OC)c1 | 105
O=C1COc2ccccc2C/C=C/C[C@H]2CN(C(=O)CN3CCCCCC3=O)CC[C@H]2N1 | 89.7
O=C(NCCc1ccccc1)[C@H]1C=CCN1C(=O)c1ccccc1F | 94

Here's the next entry for you.
input: If you can, please state the reported viability at 28.5 h, 10 µM value of CCOc1cc(/C=C/c2nc(O)c([N+](=O)[O-])c(=O)[nH]2)ccc1OCC(N)=O .
output: 96

Origin of the recorded values: paper PMC12040169
